# measured_on: unphosphorylated-BTK kinase domain (UP-BTK), GST-tagged human BTK (389-659aa) (Homo sapiens (Human))
# protocol: BTK Kinase Lanthascreen Binding Assay
# protocol_conditions: read-out: BTK_I_binding pIC50 (converted)
observed_property: IC50 (nM)

I = Cc1cc(Oc2ccccc2)ccc1N1C(=O)Nc2c(C(=O)N[C@@H]3CCC[C@@H]3N(C)C)sc3nccc1c23
II = C=CC(=O)N[C@H]1CCC[C@H]1NC(=O)c1sc2nccc3c2c1NC(=O)N3c1ccc(Oc2cccc(C)n2)cn1
# query: argmin of IC50 over I and II Answer format: the label of the selected item. II
(II: 28.8 nM, I: 120 nM)

###

# measured_on: unphosphorylated-BTK kinase domain (UP-BTK), GST-tagged human BTK (389-659aa) (Homo sapiens (Human), UniProt Q06187)
# Sequence (Q06187 389-659): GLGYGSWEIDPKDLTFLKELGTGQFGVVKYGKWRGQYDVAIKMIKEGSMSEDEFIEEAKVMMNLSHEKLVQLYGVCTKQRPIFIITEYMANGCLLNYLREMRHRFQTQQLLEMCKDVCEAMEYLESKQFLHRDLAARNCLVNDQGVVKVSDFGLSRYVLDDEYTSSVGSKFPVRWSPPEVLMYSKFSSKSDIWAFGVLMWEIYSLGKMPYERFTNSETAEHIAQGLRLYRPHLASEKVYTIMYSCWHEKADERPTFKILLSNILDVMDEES
# protocol: BTK Kinase Lanthascreen Binding Assay
# protocol_conditions: compound, 50 nM Tracer 236, 2 nM anti-GST antibody, 60 minutes; pIC50 = negative log of the IC50 in molar
# Protocol: BTK Kinase Lanthascreen Binding Assay: A BTK kinase lanthascreen binding assay monitors compound binding to unphosphorylated-BTK kinase domain (UP-BTK), by competing with a fluorescent labeled tracer. […] Data were analyzed using Xlfit™ version 5.3 from ID Business Solutions (Guildford), Microsoft Excel add-in. pIC50 refers to the negative log of the IC50 in molar.
observed_property: BTK_I_binding pIC50

In [3]: df
Out[3]:
                                   compound    observed_property  measured_result
0  N[C@H]1CCCC[C@H]1NC(=O)c1sc2nccc3c2c1NC(=O)N3c1ccc(Oc2ccccc2)cc1 [Example 126]  BTK_I_binding pIC50             7.13
1  O=C(N[C@H]1CCC[C@@H](O)C1)c1sc2nccc3c2c1NC(=O)N3c1ccc(Oc2ccccc2)cc1 [Example 157]  BTK_I_binding pIC50             6.19
2  C=CC(=O)N[C@H]1CCC[C@H]1NC(=O)c1sc2nccc3c2c1NC(=O)N3c1ccc(Oc2cccnc2)cc1C [Example 199]  BTK_I_binding pIC50             8.13
3  Cc1cc(Oc2ccccc2)ccc1N1C(=O)Nc2c(C(=O)N[C@H]3CCC[C@H](NC(=O)CN)C3)sc3nccc1c23 (single isomer, unassigned) [Example 251]  BTK_I_binding pIC50             6.71
4  C=CC(=O)N[C@H]1CCCC[C@H]1NC(=O)c1sc2nccc3c2c1NC(=O)N3c1cnc(Oc2ccccc2)cc1C (single isomer, unassigned) [Example 173]  BTK_I_binding pIC50             8.02
5  C=CC(=O)NC1CCC[C@@H](NC(=O)c2sc3nccc4c3c2NC(=O)N4c2ccc(Oc3ccccc3)cc2C)C1 (stereo in doubt) [Example 2]  BTK_I_binding pIC50             7.36

###

# measured_on: unphosphorylated-BTK kinase domain (UP-BTK), GST-tagged human BTK (389-659aa) (Homo sapiens (Human), UniProt Q06187)
# protocol: BTK Kinase Lanthascreen Binding Assay
# protocol_conditions: compound, 50 nM Tracer 236, 2 nM anti-GST antibody, 60 minutes; pIC50 = negative log of the IC50 in molar
observed_property: BTK_I_binding pIC50

In [3]: df
Out[3]:
                                   molecule    observed_property  measured_result
0  C=CC(=O)N[C@H]1CCC[C@H]1NC(=O)c1sc2nccc3c2c1NC(=O)N3c1ccc(OC2CCOCC2)cc1  BTK_I_binding pIC50             6.76
1  Cc1cc(Oc2ccccc2)ccc1N1C(=O)Nc2c(C(=O)N[C@@H]3CCC[C@H]3N)sc3nccc1c23 [Example 22]  BTK_I_binding pIC50             7.13
2  Cc1cc(Oc2ccccc2)ccc1N1C(=O)Nc2c(C(=O)N[C@@H]3CCCC[C@H]3N(C)C)sc3nccc1c23  BTK_I_binding pIC50             6.23
3  Cc1cc(Oc2ccccc2)ccc1N1C(=O)Nc2c(C(=O)N[C@H]3CC[C@@H](NC(=O)/C(C#N)=C/C4CC4)CC3)sc3nccc1c23  BTK_I_binding pIC50             6.63

Each recorded value in this set is attributed to patent US10934310B2.
